Data origin: patent US6713475B2

In this section, each of the molecules is paired with its reported IC50.
# system.name: V2 (Homo sapiens, UniProt P30518)
# Sequence (P30518 whole entry): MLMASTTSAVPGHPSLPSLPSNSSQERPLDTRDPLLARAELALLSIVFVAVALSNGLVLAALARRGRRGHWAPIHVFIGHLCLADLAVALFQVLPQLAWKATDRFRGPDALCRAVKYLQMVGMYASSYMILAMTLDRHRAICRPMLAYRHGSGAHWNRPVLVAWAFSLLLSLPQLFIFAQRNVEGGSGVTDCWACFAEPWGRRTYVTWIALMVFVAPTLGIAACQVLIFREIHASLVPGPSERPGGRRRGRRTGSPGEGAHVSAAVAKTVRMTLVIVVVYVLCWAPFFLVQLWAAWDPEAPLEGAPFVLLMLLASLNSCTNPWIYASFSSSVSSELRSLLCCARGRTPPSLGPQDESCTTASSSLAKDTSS
# procedure.summary: In vitro recombinant vasopressin receptor binding assay (V2 Bdg), displacement of 3H-arginine vasopressin
# Parameters: expressed in transfected cells; host or cells: HEK-293
# experimental.conditions: membrane with cloned human V-2 receptor (HEK-293)
# Protocol: In vitro Recombinant Vasopressin Receptor Binding Assay Compounds were assessed for their ability to displace ^3H-arginine vasopressin from the human V-1 or V-2 receptor in HEK-293 cells. […] Into wells of 96-well round bottom polypropylene plates were added buffer, test compound, membrane (containing cloned human V-1 or V-2 receptor), and ^3H-vasopressin. The reaction plates were allowed to sit at room temperature for one hour. […] The top of the plate was sealed, and the plate was counted.
The reply should be a number in nM, with the unit left off.

Query block: State its IC50 for this molecule: COc1cc(NC(=O)c2ccccc2-c2ccccc2)ccc1C(=O)N1CC2CSCCN2Cc2ccccc21 (racemic)
Result block: 32

Query block: State its IC50 for this molecule: O=C(Nc1ccc(C(=O)N2CC3CSCCN3Cc3ccccc32)c(Cl)c1)c1cc(F)ccc1-c1ccccc1 (racemic)
Result block: 79

Query block: State its IC50 for this molecule: O=C(Nc1ccc(C(=O)N2CC3COCCN3Cc3ccccc32)c(Cl)c1)c1cc(F)c(F)c(F)c1F (racemic)
Result block: 25

* * *

# system.name: V2 (Homo sapiens)
# procedure.summary: In vitro recombinant vasopressin receptor binding assay (V2 Bdg), displacement of 3H-arginine vasopressin
# Parameters: expressed in transfected cells; host or cells: HEK-293
# experimental.conditions: membrane with cloned human V-2 receptor (HEK-293)
In this section, each of the compounds is paired with its reported pIC50.
Quick note: pIC50 values are minus log10 of concentrations in mol/L.

Here are 3 compounds together with their reported answers.
Cc1csc(-c2cc(F)ccc2C(=O)Nc2ccc(C(=O)N3CC4COCCN4Cc4ccccc43)c(Cl)c2)c1 (racemic): 7.96
Cc1ccc(-c2ccccc2C(=O)Nc2ccc(C(=O)N3CC4COCCN4Cc4ccccc43)cc2)cc1 (racemic): 8.22
O=C(Nc1ccc(C(=O)N2CC3COCCN3Cc3ccccc32)cc1)c1ccccc1-c1ccccc1 (racemic): 8.10

Query block: Find pIC50 for Cc1ccc(-c2ccccc2C(=O)Nc2ccc(C(=O)N3CC4COCCN4Cc4ccccc43)c(C)c2)cc1 (racemic) on V2 (Homo sapiens) and write it down.
Result block: 8.00

Query block: Find pIC50 for Cc1ccc(-c2ccccc2C(=O)Nc2ccc(C(=O)N3CC4COCCN4Cc4ccccc43)c(F)c2)cc1 (racemic) on V2 (Homo sapiens) and write it down.
Result block: 7.85

Query block: Find pIC50 for Cc1ccc(F)cc1C(=O)Nc1ccc(C(=O)N2CC3COCCN3Cc3ccccc32)c(Cl)c1 (racemic) on V2 (Homo sapiens) and write it down.
Result block: 8.22

Query block: Find pIC50 for Cc1ccc(-c2ccccc2C(=O)Nc2ccc(C(=O)N3CC4COCCN4Cc4ccccc43)c(Cl)c2)cc1 (racemic) on V2 (Homo sapiens) and write it down.
Result block: 7.92

Query block: Find pIC50 for Cc1csc(-c2ccccc2C(=O)Nc2ccc(C(=O)N3CC4CSCCN4Cc4ccccc43)cc2)c1 (racemic) on V2 (Homo sapiens) and write it down.
Result block: 7.82

* * *

# system.name: V2 (Homo sapiens)
# procedure.summary: In vitro recombinant vasopressin receptor binding assay (V2 Bdg), displacement of 3H-arginine vasopressin
# Design: expressed in transfected cells; host or cells: HEK-293
# experimental.conditions: membrane with cloned human V-2 receptor (HEK-293)
reported.endpoint: IC50 (nM)
The reply should be a number in nM, with the unit left off.

Here are 2 molecules together with their reported answers.
O=C(Nc1ccc(C(=O)N2CC3CSCCN3Cc3ccccc32)c(O)c1)c1ccccc1-c1ccccc1 (racemic): 7
COc1cc(C(=O)N2CC3CN(C)CCN3Cc3ccccc32)ccc1NC(=O)c1ccccc1-c1ccc(C)cc1 (racemic): 43

Continue with the molecule presented below.
Query block: State its IC50 for this molecule: O=C(Nc1ccc(C(=O)N2CC3CS(=O)(=O)CCN3Cc3ccccc32)cc1)c1ccccc1-c1ccccc1 (racemic)
Result block: 140
